- Tgt: Estrogen receptor beta (Homo sapiens)
- Sequence (Q92731 whole entry): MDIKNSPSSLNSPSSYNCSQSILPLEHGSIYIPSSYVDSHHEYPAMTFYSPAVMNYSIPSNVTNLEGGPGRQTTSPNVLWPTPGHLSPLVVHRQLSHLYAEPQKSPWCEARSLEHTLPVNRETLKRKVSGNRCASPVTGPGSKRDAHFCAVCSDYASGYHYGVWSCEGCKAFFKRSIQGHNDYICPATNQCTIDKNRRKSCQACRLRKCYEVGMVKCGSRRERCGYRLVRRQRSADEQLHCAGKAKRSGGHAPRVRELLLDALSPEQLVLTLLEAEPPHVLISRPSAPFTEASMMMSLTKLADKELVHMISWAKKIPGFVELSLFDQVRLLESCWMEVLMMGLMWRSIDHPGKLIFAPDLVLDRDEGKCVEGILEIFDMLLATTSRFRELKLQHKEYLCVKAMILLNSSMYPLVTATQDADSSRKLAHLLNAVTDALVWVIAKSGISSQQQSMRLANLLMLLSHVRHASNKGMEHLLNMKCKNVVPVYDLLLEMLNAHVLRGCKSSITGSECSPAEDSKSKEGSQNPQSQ
- Protocol: Binding affinity to ERbeta receptor in COS7 cells by competitive binding assay

>  <Smiles entry>
Brc1cc2c(cc1[C@@H]1Nc3ccccc3[C@@H]3C=CC[C@@H]31)OCO2

>  <Ki>
> 10 µM

$$$$
